Listed here: items and their measured relative viability.
- System: EMC-BAC-2
- METHOD DESCRIPTION: relative viability (nuclei count vs DMSO), 5 days (fraction); higher = more cells survive
- APPLIED CONDITIONS: first compound 0.01581 µM

# COMPOUND, relative viability
rows = [
    ("Nc1ccn([C@@H]2O[C@H](CO)[C@@H](O)[C@@H]2O)c(=O)n1 [Cytarabine] + N=C(N)NC(=N)NCCc1ccccc1 [Phenformin] (partner 250 µM)", 0.482),
    ("COc1cc2nccc(Oc3ccc(NC(=O)Nc4cc(C)on4)c(Cl)c3)c2cc1OC [Tivozanib] + C[C@]1(O)C[C@@H](c2nc(-c3ccc4ccc(-c5ccccc5)nc4c3)c3c(N)nccn32)C1 [Linsitinib] (partner 1 µM)", 0.787),
    ("Nc1ccn([C@@H]2O[C@H](CO)[C@@H](O)[C@@H]2O)c(=O)n1 [Cytarabine] + COc1cccc2cc(-c3nc([C@H]4CC[C@H](C(=O)O)CC4)n4ncnc(N)c34)[nH]c12 [OSI-027] (partner 0.5 µM)", 0.353),
    ("COc1cc2nccc(Oc3ccc(NC(=O)Nc4cc(C)on4)c(Cl)c3)c2cc1OC [Tivozanib] + Cc1nc(NC(=O)N2CCC[C@H]2C(N)=O)sc1-c1ccnc(C(C)(C)C(F)(F)F)c1 [Alpelisib] (partner 2 µM)", 0.736),
    ("Nc1ccn([C@@H]2O[C@H](CO)[C@@H](O)[C@@H]2O)c(=O)n1 [Cytarabine] + CCNC(=O)c1noc(-c2cc(C(C)C)c(O)cc2O)c1-c1ccc(CN2CCOCC2)cc1 [Luminespib] (partner 0.01 µM)", 0.742),
]

###

- Test system: LXF-289
- METHOD DESCRIPTION: relative viability (nuclei count vs DMSO), 5 days (fraction); higher = more cells survive
- APPLIED CONDITIONS: first compound 15.81 µM
Listed here: items and their measured relative viability.
MEASUREMENT KIND: relative viability

# COMPOUND, MEASUREMENT TARGET, MEASUREMENT KIND, REPORTED VALUE
measured = [
    ("O=C(O)CCCCC(CCSCc1ccccc1)SCc1ccccc1 (configuration not stated) [CPI-613] + CS(=O)(=O)N1CCN(Cc2cc3nc(-c4cccc5[nH]ncc45)nc(N4CCOCC4)c3s2)CC1 [Pictilisib] (partner 1 µM)", "LXF-289", "relative viability", 0.752),
    ("O=C(O)CCCCC(CCSCc1ccccc1)SCc1ccccc1 (configuration not stated) [CPI-613] + CC1(C)CCC(c2ccc(Cl)cc2)=C(CN2CCN(c3ccc(C(=O)NS(=O)(=O)c4ccc(N[C@H](CCN5CCOCC5)CSc5ccccc5)c(S(=O)(=O)C(F)(F)F)c4)cc3)CC2)C1 [Navitoclax] (partner 0.5 µM)", "LXF-289", "relative viability", 0.894),
    ("O=C(O)CCCCC(CCSCc1ccccc1)SCc1ccccc1 (configuration not stated) [CPI-613] + Cc1nc(NC(=O)N2CCC[C@H]2C(N)=O)sc1-c1ccnc(C(C)(C)C(F)(F)F)c1 [Alpelisib] (partner 2 µM)", "LXF-289", "relative viability", 0.961),
    ("O=C(O)CCCCC(CCSCc1ccccc1)SCc1ccccc1 (configuration not stated) [CPI-613] + COc1cc2c(Oc3ccc(NC(=O)C4(C(=O)Nc5ccc(F)cc5)CC4)cc3F)ccnc2cc1OCCCN1CCOCC1 [Foretinib] (partner 0.25 µM)", "LXF-289", "relative viability", 0.919),
    ("O=C(O)CCCCC(CCSCc1ccccc1)SCc1ccccc1 (configuration not stated) [CPI-613] + C[C@@H](Oc1cc(-c2cnn(C3CCNCC3)c2)cnc1N)c1c(Cl)ccc(F)c1Cl [Crizotinib] (partner 1 µM)", "LXF-289", "relative viability", 0.764),
    ("O=C(O)CCCCC(CCSCc1ccccc1)SCc1ccccc1 (configuration not stated) [CPI-613] + CC(=O)Nc1cccc(-n2c(=O)n(C3CC3)c(=O)c3c(Nc4ccc(I)cc4F)n(C)c(=O)c(C)c32)c1 [Trametinib] (partner 0.02 µM)", "LXF-289", "relative viability", 0.659),
    ("O=C(O)CCCCC(CCSCc1ccccc1)SCc1ccccc1 (configuration not stated) [CPI-613] + C[C@]1(O)C[C@@H](c2nc(-c3ccc4ccc(-c5ccccc5)nc4c3)c3c(N)nccn32)C1 [Linsitinib] (partner 1 µM)", "LXF-289", "relative viability", 0.969),
]
